The reported numbers originate from patent US7781421B2.

molecular target: rat α1β2γ2 GABAA Receptor (Rattus norvegicus, UniProt P18508+P62813+P63138, INS375LLRMFSFK); construct: from linearized pBluescript vectors containing receptor coding regions; expressed in transfected cells; host or cells: Xenopus laevis oocytes injected with in vitro transcribed capped mRNA; assay: Xenopus oocyte two-electrode voltage-clamp electrophysiology; assay type: cell-based; settings: 10 μM compound co-applied with 2 μM GABA; −70 mV
Sequence (P62813 28-455, stated change not applied): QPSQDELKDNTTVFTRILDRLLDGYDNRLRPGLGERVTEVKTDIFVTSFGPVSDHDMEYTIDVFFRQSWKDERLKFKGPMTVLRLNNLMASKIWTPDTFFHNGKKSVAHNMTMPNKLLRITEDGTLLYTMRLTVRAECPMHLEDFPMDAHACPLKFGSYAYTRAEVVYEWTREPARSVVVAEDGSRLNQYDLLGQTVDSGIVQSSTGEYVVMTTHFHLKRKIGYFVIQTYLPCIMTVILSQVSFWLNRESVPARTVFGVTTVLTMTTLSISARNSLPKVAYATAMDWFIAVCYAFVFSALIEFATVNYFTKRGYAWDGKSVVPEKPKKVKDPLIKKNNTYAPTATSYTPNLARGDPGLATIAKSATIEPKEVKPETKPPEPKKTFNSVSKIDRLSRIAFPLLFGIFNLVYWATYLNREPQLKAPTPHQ
Sequence (P63138 26-474, stated change not applied): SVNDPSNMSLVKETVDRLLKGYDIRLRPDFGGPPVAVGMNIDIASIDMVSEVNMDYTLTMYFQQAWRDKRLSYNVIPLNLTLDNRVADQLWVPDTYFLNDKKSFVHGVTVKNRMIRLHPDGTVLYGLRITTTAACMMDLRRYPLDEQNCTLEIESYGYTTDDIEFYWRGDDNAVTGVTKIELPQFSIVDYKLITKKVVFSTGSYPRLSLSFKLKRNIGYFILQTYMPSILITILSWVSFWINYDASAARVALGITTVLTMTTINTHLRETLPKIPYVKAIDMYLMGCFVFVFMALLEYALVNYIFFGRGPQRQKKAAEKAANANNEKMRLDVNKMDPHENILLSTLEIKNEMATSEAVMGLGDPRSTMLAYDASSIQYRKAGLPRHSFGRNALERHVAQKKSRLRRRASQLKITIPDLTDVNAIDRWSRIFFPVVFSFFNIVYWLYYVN
Sequence (P18508 with tags, fused parts or gaps INS375LLRMFSFK): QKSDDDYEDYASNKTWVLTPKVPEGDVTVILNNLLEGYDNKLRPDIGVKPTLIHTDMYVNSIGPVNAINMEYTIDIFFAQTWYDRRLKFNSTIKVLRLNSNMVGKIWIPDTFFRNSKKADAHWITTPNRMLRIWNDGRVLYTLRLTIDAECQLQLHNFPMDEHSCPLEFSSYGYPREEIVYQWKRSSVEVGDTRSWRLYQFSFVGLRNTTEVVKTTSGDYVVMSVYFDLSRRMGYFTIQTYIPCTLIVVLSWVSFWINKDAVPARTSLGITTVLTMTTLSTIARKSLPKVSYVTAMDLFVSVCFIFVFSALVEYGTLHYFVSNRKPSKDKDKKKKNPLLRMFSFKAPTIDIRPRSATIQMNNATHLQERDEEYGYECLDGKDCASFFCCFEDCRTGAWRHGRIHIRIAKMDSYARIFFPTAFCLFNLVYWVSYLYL
The reader will find reported Oocyte electrophysiology, ratio of currents in presence/absence of compound, 10 μM values listed item by item below.
// return just the number, without any unit appended

The cases that follow already have their Oocyte electrophysiology, ratio of currents in presence/absence of compound, 10 μM on record.
[[record]]
compound = "CC12CCC(O)CC1CCC1C2CCC23C=CC(=O)CC2CCC13 (stereo not drawn) [Compound 30a]"
observed = 5.07

[[record]]
compound = "CC12CCC(O)CC1CCC1C2CCC23CCC(=CC#N)C2CCC13 (stereo not drawn) [Compound 96]"
observed = 2.90

[[record]]
compound = "CC12CCC(O)CC1CCC1C2CCC23CCC=CC2CCC13 (stereo not drawn) [Compound 13a]"
observed = 2.68

[[record]]
compound = "CC12CCC(O)CC1CCC1C2CCC23CC(=O)C=CC2CCC13 (stereo not drawn) [Compound 21c]"
observed = 16.58

[[record]]
compound = "C[C@]12CC[C@@H](O)C[C@@H]1CCC1C3CC[C@@H]4C[C@H](C#N)CC[C@]34CCC12 (stereo partly drawn)"
observed = 0.87

[[record]]
compound = "CC12CCC(O)CC1CCC1C2CCC23C=CC(=O)CC2CCC13 (stereo not drawn) [Compound 30b]"
observed = 4.44

[[record]]
compound = "CC(=O)C1=CCCC23CCC4C(CCC5CC(O)CCC54C)C2CCC13 (stereo not drawn)"
observed = 1.15

[[record]]
compound = "C[C@]12CC[C@@H](O)C[C@@H]1CCC1C3CC[C@@H]4CC[C@@H](C#N)C[C@]34CCC12 (stereo partly drawn)"
observed = 1.3

[[record]]
compound = "CC12CCC(O)CC1CCC1C2CCC23CCC(=CC#N)C2CCC13 (stereo not drawn) [Compound 97]"
observed = 1.10

[[record]]
compound = "CC(=O)C1CCCC23CCC4C(CCC5CC(O)CCC54C)C2CCC13 (stereo not drawn) [Compound 80]"
observed = 0.93


What value of Oocyte electrophysiology, ratio of currents in presence/absence of compound, 10 μM has been recorded for this entry: CC12CCC(O)CC1CCC1C2CCC23C(=O)C=CCC2CCC13 (stereo not drawn) [Compound 35b] 21.38

Ok, now CC12CCC(O)CC1CCC1C2CCC23C=C(Br)C(=O)C2CCC13 (stereo not drawn) 8.75
